- STUDY SYSTEM: UniProt Q9NWZ3
- Sequence (Q9NWZ3 whole entry, looked up): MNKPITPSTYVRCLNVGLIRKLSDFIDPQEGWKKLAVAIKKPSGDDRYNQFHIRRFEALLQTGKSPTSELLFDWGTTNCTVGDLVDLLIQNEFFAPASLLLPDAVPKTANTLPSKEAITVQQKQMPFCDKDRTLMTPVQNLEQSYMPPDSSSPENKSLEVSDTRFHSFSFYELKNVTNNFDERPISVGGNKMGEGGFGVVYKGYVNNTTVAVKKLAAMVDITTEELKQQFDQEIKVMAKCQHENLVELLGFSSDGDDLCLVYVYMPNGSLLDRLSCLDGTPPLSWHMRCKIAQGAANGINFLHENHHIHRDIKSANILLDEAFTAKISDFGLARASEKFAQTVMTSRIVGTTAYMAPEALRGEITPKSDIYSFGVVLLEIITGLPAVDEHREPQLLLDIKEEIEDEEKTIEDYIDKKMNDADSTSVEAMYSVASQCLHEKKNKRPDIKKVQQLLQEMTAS
- METHOD SUMMARY: radiometric filter-binding kinase assay
- CONDITION DETAILS: compound 1.0 µM
Readings of residual activity for the listed compounds
EXPERIMENTAL ENDPOINT: residual activity (%)

INSERT INTO results (compound, experimental_value) VALUES
  ('Cc1ccc(-c2ccc3c(ccc4sc5c(c43)NC[C@@H](C)NC5=O)n2)cn1', 62),
  ('COc1cc(O)c2c(c1)/C=C/C[C@H](O)[C@H](O)C(=O)/C=C\C[C@H](C)OC2=O', 28),
  ('NC1(c2ccc(-c3nc4ccn5c(=O)[nH]nc5c4cc3-c3ccccc3)cc2)CCC1', 92),
  ('CCn1c(-c2nonc2N)nc2cncc(CNC3CCNCC3)c21', 86),
  ('COc1ccc(-n2ncc3cnc(Nc4cc(OC)c(OC)c(OCCCN5CCN(C)CC5)c4)nc32)cc1', 20),
  ('NC(=O)c1cc(-c2ccnc(NC3CCCCC3)c2)nc(N2CCNCC2)c1', 127),
  ('COc1cc2ncn(-c3cc(OCc4ccccc4S(C)(=O)=O)c(C#N)s3)c2cc1OC', 13),
  ('NCC(=O)Nc1ccc(-n2nc(C(F)(F)F)cc2-c2ccc3c(ccc4ccccc43)c2)cc1', 84),
  ('Cc1ccc(=O)n(-c2ccccc2)c1', 83),
  ('COc1cc(O)c2c(c1)[C@H]1OC1C[C@H](O)[C@H](O)C(=O)/C=C\C[C@H](C)OC2=O (stereo not given in full)', 57),
  ('Oc1ccc2ccccc2c1SSc1c(O)ccc2ccccc12', 47),
  ('NC(=O)c1cc2c(-c3cccc(-c4ccccc4)c3)cnc(N)c2s1', 92),
  ('FC(F)(F)c1ccc(-c2ccc(Oc3cncc4sc(-c5nn[nH]n5)cc34)cc2)cc1', 90),
  ('O=C(O)c1ccc(-c2c[nH]c3ncc(-c4ccccc4)cc23)cc1C1CCCC1', 12),
  ('O=C(NCCCNc1nc(Nc2cccc(CN3CCOCC3)c2)ncc1C1CC1)C1CCC1', 83),
  ('c1ccc2c(-c3cnn4cc(-c5ccc(N6CCNCC6)cc5)cnc34)ccnc2c1', 91),
  ('O=C(Nc1ccccc1-c1cn2c(CN3CCNCC3)csc2n1)c1cnc2ccccc2n1', 63),
  ('NC(=O)c1c(NC(=O)C2CC2)sc2c1CCCC2', 68),
  ('COc1ccc(N(C(=O)Nc2c(C)cccc2C)c2cc(Nc3ccc(N4CCN(C)CC4)cc3)ncn2)c(OC)c1', 90),
  ('O=C(NOCC(O)CO)c1ccc(F)c(F)c1Nc1ccc(I)cc1Cl (stereo not given)', 77);

---

- STUDY SYSTEM: MAP3K5 (human) (UniProt Q99683)
- Sequence (Q99683 whole entry, looked up): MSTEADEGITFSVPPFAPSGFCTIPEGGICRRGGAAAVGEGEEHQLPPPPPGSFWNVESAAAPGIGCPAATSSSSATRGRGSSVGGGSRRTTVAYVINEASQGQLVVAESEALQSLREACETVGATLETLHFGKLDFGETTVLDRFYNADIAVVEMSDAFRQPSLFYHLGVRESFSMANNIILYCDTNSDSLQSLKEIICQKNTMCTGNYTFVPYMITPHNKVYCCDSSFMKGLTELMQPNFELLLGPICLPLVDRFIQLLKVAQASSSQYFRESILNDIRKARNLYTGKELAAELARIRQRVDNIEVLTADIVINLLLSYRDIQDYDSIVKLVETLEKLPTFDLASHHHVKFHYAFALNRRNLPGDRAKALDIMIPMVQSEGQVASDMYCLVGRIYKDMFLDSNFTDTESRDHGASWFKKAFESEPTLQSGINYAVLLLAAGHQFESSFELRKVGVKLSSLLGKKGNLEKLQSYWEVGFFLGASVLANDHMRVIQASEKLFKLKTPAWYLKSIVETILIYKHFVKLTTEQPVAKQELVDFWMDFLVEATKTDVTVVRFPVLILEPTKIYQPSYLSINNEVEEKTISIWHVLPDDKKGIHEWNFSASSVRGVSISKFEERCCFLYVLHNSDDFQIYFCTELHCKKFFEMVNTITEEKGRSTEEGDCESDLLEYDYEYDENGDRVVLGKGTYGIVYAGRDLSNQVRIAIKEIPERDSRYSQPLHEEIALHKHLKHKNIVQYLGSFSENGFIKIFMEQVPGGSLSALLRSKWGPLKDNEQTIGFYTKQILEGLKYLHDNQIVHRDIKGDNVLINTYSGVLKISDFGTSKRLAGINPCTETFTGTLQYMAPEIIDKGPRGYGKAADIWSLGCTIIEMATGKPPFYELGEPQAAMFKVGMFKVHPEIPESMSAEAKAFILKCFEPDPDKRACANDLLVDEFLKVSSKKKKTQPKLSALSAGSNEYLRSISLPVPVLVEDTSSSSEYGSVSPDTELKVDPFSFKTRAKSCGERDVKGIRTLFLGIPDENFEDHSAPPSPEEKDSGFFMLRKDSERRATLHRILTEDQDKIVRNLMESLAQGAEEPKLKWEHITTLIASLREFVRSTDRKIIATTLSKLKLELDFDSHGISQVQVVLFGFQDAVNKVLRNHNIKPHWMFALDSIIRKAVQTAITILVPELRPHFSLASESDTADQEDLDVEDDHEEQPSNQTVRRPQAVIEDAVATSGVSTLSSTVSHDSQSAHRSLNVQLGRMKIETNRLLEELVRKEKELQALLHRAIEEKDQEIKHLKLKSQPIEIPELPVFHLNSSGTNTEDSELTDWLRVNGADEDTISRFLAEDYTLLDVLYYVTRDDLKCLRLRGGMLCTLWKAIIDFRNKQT
- METHOD SUMMARY: radiometric filter-binding kinase assay
- CONDITION DETAILS: compound 0.1 µM
EXPERIMENTAL ENDPOINT: residual activity (%)

INSERT INTO measurements (molecule_smiles, experimental_value) VALUES
  ('NC1(c2ccc(-c3nc4ccn5c(=O)[nH]nc5c4cc3-c3ccccc3)cc2)CCC1', 97),
  ('O=C(NCCCNc1nc(Nc2cccc(CN3CCOCC3)c2)ncc1C1CC1)C1CCC1', 105),
  ('CN(C)C/C=C/C(=O)Nc1cccc(C(=O)Nc2ccc(Nc3nccc(-c4cccnc4)n3)cc2)c1', 96);

// provenance: the kinase profiling compilation of Christmann-Franck et al. (2016)
